target: δ-opioid receptor (Rattus norvegicus)
Sequence (P33533 whole entry): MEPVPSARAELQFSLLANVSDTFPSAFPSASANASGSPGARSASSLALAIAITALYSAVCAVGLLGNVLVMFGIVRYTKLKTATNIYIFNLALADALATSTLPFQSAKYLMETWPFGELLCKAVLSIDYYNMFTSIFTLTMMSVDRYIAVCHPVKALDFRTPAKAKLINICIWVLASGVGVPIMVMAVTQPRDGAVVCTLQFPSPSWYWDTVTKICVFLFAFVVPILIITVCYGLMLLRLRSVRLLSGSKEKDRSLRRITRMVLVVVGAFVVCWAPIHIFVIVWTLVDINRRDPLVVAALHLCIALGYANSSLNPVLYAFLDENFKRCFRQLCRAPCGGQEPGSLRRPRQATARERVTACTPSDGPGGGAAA
Where a SMILES comes first, the peptide text is derived from it. [ ]: non-standard residue; d: D form. Kyn = Nc1ccccc1C(=O)C[C@H](N)C(=O)O
MEASUREMENT KIND: Ki (nM)
Please reply with the bare figure in nM and do not write the unit itself.

So what does the record say about Ki for NC(=O)[C@H](CC(=O)c1ccccc1N)NC(=O)[C@H](Cc1ccccc1)NC(=O)[C@@H]1CCCN1C(=O)[C@@H](N)Cc1ccc(O)cc1 [Peptide K3] (H-YPF[Kyn]-NH2) ? 159

###

assay: stability in human plasma; assay type: in vitro ADME; details: fresh human plasma, 37 °C, 5 minutes, read-out: K6% of degradation
Where a SMILES comes first, the peptide text is derived from it. [ ]: non-standard residue; d: D form. Kyn = Nc1ccccc1C(=O)C[C@H](N)C(=O)O
MEASUREMENT KIND: metabolised at 5 min, 200 μg/mL (%)
Please reply with the bare figure in % and do not write the unit itself.

So what does the record say about metabolised at 5 min, 200 μg/mL for C[C@@H](NC(=O)[C@@H](N)Cc1ccc(O)cc1)C(=O)NCC(=O)N[C@@H](Cc1ccccc1)C(=O)N[C@@H](CC(=O)c1ccccc1N)C(N)=O [Peptide K6] (H-Y[dA]GF[Kyn]-NH2) ? 7
